target: UniProt P32745; test: Displacement of [125I]-[Leu8, DTrp22, Tyr25]SRIF-28 from human cloned sst3 receptor expressed in CCL39 cells
measured_endpoint: IC50 (nM)

Solved cases below.
test_smiles | IC50 [nM]
C[C@@H](O)[C@@H]1NC(=O)[C@H](CCCCN)NC(=O)[C@@H](Cc2c[nH]c3ccccc23)NC(=O)[C@H](Cc2ccccc2)NC(=O)[C@H](Cc2ccccc2)NC(=O)[C@@H](N)CSSC[C@H](C(=O)O)NC(=O)[C@H](Cc2ccccc2)NC1=O | 18.5
CC(=O)N[C@H]1CCSSC[C@@H](C(=O)O)NC(=O)[C@H](Cc2ccccc2)NC(=O)[C@H]([C@@H](C)O)NC(=O)[C@H](CCCCN)NC(=O)[C@@H](Cc2c[nH]c3ccccc23)NC(=O)[C@H](Cc2ccccc2)NC(=O)[C@H](Cc2ccccc2)NC1=O | 38
C[C@@H](O)[C@@H]1NC(=O)[C@H](CCCCN)NC(=O)[C@@H](Cc2c[nH]c3ccccc23)NC(=O)[C@H](Cc2ccccc2)NC(=O)[C@H](Cc2ccccc2)NC(=O)[C@H](N)CSSC[C@H](C(=O)O)NC(=O)[C@H](Cc2ccccc2)NC1=O | 6.3
CC(=O)N[C@@H]1CSS[C@H](C(=O)O)NC(=O)[C@H](Cc2ccccc2)NC(=O)[C@H]([C@@H](C)O)NC(=O)[C@H](CCCCN)NC(=O)[C@@H](Cc2c[nH]c3ccccc23)NC(=O)[C@H](Cc2ccccc2)NC(=O)[C@H](Cc2ccccc2)NC1=O | 30
CC(=O)N[C@@H]1CCSSC[C@@H](C(=O)O)NC(=O)[C@H](Cc2ccccc2)NC(=O)[C@H]([C@@H](C)O)NC(=O)[C@H](CCCCN)NC(=O)[C@@H](Cc2c[nH]c3ccccc23)NC(=O)[C@H](Cc2ccccc2)NC(=O)[C@H](Cc2ccccc2)NC1=O | 69

(A) CC(=O)N[C@H]1CSSC[C@H](C(=O)O)NC(=O)[C@H](Cc2ccccc2)NC(=O)[C@H]([C@@H](C)O)NC(=O)[C@H](CCCCN)NC(=O)[C@@H](Cc2c[nH]c3ccccc23)NC(=O)[C@H](Cc2ccccc2)NC(=O)[C@H](Cc2ccccc2)NC1=O
(B) CC(=O)N[C@H]1SSC[C@H](C(=O)O)NC(=O)[C@H](Cc2ccccc2)NC(=O)[C@H]([C@@H](C)O)NC(=O)[C@H](CCCCN)NC(=O)[C@@H](Cc2c[nH]c3ccccc23)NC(=O)[C@H](Cc2ccccc2)NC(=O)[C@H](Cc2ccccc2)NC1=O
(C) CC(=O)N[C@@H]1SSC[C@H](C(=O)O)NC(=O)[C@H](Cc2ccccc2)NC(=O)[C@H]([C@@H](C)O)NC(=O)[C@H](CCCCN)NC(=O)[C@@H](Cc2c[nH]c3ccccc23)NC(=O)[C@H](Cc2ccccc2)NC(=O)[C@H](Cc2ccccc2)NC1=O
(D) CC(=O)N[C@@H]1SS[C@H](C(=O)O)NC(=O)[C@H](Cc2ccccc2)NC(=O)[C@H]([C@@H](C)O)NC(=O)[C@H](CCCCN)NC(=O)[C@@H](Cc2c[nH]c3ccccc23)NC(=O)[C@H](Cc2ccccc2)NC(=O)[C@H](Cc2ccccc2)NC1=O
Ask: // ascending sort on recorded IC50 Please respond by ranking the labels in the order requested.
Reply: A, D, B, C
(A: 12 nM, D: 19 nM, B: 28 nM, C: 69 nM)

----------
target: Somatostatin receptor type 4 (Homo sapiens); experiment: Displacement of [125I]-[Leu8, DTrp22, Tyr25]SRIF-28 from human cloned sst4 receptor expressed in CCL39 cells
Sequence (P31391 whole entry): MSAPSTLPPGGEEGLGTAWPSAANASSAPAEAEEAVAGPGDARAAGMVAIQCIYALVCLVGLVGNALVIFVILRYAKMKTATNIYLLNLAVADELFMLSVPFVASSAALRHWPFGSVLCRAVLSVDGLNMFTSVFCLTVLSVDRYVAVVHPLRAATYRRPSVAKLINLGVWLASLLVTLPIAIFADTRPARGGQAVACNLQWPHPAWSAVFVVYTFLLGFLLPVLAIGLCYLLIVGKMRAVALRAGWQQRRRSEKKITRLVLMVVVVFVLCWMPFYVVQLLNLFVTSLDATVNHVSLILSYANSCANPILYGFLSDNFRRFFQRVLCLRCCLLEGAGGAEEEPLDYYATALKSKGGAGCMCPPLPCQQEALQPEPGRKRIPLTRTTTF
measured_endpoint: IC50 (nM)

Solved cases below.
compound | unit_text | IC50
C[C@@H](O)[C@@H]1NC(=O)[C@H](CCCCN)NC(=O)[C@@H](Cc2c[nH]c3ccccc23)NC(=O)[C@H](Cc2ccccc2)NC(=O)[C@H](Cc2ccccc2)NC(=O)C(N)CSSC[C@@H](C(=O)O)NC(=O)[C@H](Cc2ccccc2)NC1=O (single isomer, unassigned) | nM | 1
CC(=O)N[C@@H]1CSS[C@@H](C(=O)O)NC(=O)[C@H](Cc2ccccc2)NC(=O)[C@H]([C@@H](C)O)NC(=O)[C@H](CCCCN)NC(=O)[C@@H](Cc2c[nH]c3ccccc23)NC(=O)[C@H](Cc2ccccc2)NC(=O)[C@H](Cc2ccccc2)NC1=O | nM | 3
C[C@@H](O)[C@@H]1NC(=O)[C@H](CCCCN)NC(=O)[C@@H](Cc2c[nH]c3ccccc23)NC(=O)[C@H](Cc2ccccc2)NC(=O)[C@H](Cc2ccccc2)NC(=O)[C@H](N)CSSC[C@H](C(=O)O)NC(=O)[C@H](Cc2ccccc2)NC1=O | nM | 2.6

(1) CC(=O)N[C@H]1SSC[C@@H](C(=O)O)NC(=O)[C@H](Cc2ccccc2)NC(=O)[C@H]([C@@H](C)O)NC(=O)[C@H](CCCCN)NC(=O)[C@@H](Cc2c[nH]c3ccccc23)NC(=O)[C@H](Cc2ccccc2)NC(=O)[C@H](Cc2ccccc2)NC1=O
(2) CC(=O)N[C@@H]1CSS[C@H](C(=O)O)NC(=O)[C@H](Cc2ccccc2)NC(=O)[C@H]([C@@H](C)O)NC(=O)[C@H](CCCCN)NC(=O)[C@@H](Cc2c[nH]c3ccccc23)NC(=O)[C@H](Cc2ccccc2)NC(=O)[C@H](Cc2ccccc2)NC1=O
Ask: Pick the one with the larger IC50: 1 vs 2 Please identify the chosen entry by its label.
Reply: 1

(I) CC(=O)N[C@H]1SS[C@H](C(=O)O)NC(=O)[C@H](Cc2ccccc2)NC(=O)[C@H]([C@@H](C)O)NC(=O)[C@H](CCCCN)NC(=O)[C@@H](Cc2c[nH]c3ccccc23)NC(=O)[C@H](Cc2ccccc2)NC(=O)[C@H](Cc2ccccc2)NC1=O
(II) CC(=O)N[C@H]1CSSC[C@@H](C(=O)O)NC(=O)[C@H](Cc2ccccc2)NC(=O)[C@H]([C@@H](C)O)NC(=O)[C@H](CCCCN)NC(=O)[C@@H](Cc2c[nH]c3ccccc23)NC(=O)[C@H](Cc2ccccc2)NC(=O)[C@H](Cc2ccccc2)NC1=O
Ask: Pick the one with the larger IC50: I vs II Please identify the chosen entry by its label.
Reply: I
(I: 2.7 nM, II: 1.3 nM)

(1) CC(=O)N[C@@H]1CSSC[C@@H](C(=O)O)NC(=O)[C@H](Cc2ccccc2)NC(=O)[C@H]([C@@H](C)O)NC(=O)[C@H](CCCCN)NC(=O)[C@@H](Cc2c[nH]c3ccccc23)NC(=O)[C@H](Cc2ccccc2)NC(=O)[C@H](Cc2ccccc2)NC1=O
(2) CC(=O)N[C@@H]1SS[C@H](C(=O)O)NC(=O)[C@H](Cc2ccccc2)NC(=O)[C@H]([C@@H](C)O)NC(=O)[C@H](CCCCN)NC(=O)[C@@H](Cc2c[nH]c3ccccc23)NC(=O)[C@H](Cc2ccccc2)NC(=O)[C@H](Cc2ccccc2)NC1=O
(3) CC(=O)N[C@H]1CSS[C@@H](C(=O)O)NC(=O)[C@H](Cc2ccccc2)NC(=O)[C@H]([C@@H](C)O)NC(=O)[C@H](CCCCN)NC(=O)[C@@H](Cc2c[nH]c3ccccc23)NC(=O)[C@H](Cc2ccccc2)NC(=O)[C@H](Cc2ccccc2)NC1=O
Ask: # sort list by recorded IC50, greatest to least Please respond by ranking the labels in the order requested.
Reply: 3, 2, 1
(3: 6 nM, 2: 1.6 nM, 1: 0.7 nM)

(P) CC(=O)N[C@H]1SS[C@@H](C(=O)O)NC(=O)[C@H](Cc2ccccc2)NC(=O)[C@H]([C@@H](C)O)NC(=O)[C@H](CCCCN)NC(=O)[C@@H](Cc2c[nH]c3ccccc23)NC(=O)[C@H](Cc2ccccc2)NC(=O)[C@H](Cc2ccccc2)NC1=O
(Q) CC(=O)N[C@@H]1SSC[C@H](C(=O)O)NC(=O)[C@H](Cc2ccccc2)NC(=O)[C@H]([C@@H](C)O)NC(=O)[C@H](CCCCN)NC(=O)[C@@H](Cc2c[nH]c3ccccc23)NC(=O)[C@H](Cc2ccccc2)NC(=O)[C@H](Cc2ccccc2)NC1=O
Ask: Pick one, P or Q : lowest reported IC50. Please identify the chosen entry by its label.
Reply: P

----------
target: Somatostatin receptor type 3 (Homo sapiens, UniProt P32745); assay: Displacement of [125I]-[Leu8, DTrp22, Tyr25]SRIF-28 from human cloned sst3 receptor expressed in CCL39 cells
Sequence (P32745 whole entry): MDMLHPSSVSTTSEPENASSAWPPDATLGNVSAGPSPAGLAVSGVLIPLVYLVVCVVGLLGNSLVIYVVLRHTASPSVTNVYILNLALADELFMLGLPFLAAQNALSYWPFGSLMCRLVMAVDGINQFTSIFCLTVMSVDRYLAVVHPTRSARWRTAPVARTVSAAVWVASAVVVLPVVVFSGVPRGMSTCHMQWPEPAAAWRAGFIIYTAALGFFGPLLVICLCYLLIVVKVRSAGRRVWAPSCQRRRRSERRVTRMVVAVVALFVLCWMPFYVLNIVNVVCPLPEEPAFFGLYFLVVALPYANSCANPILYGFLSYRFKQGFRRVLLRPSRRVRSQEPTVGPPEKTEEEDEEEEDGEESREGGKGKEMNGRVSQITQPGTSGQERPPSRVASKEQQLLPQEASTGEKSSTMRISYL
measured_endpoint: IC50 (nM)

Solved cases below.
compound | unit_text | IC50
CC(=O)N[C@H]1SS[C@@H](C(=O)O)NC(=O)[C@H](Cc2ccccc2)NC(=O)[C@H]([C@@H](C)O)NC(=O)[C@H](CCCCN)NC(=O)[C@@H](Cc2c[nH]c3ccccc23)NC(=O)[C@H](Cc2ccccc2)NC(=O)[C@H](Cc2ccccc2)NC1=O | nM | 31
C[C@@H](O)[C@@H]1NC(=O)[C@H](CCCCN)NC(=O)[C@@H](Cc2c[nH]c3ccccc23)NC(=O)[C@H](Cc2ccccc2)NC(=O)[C@H](Cc2ccccc2)NC(=O)C(N)CSSC[C@@H](C(=O)O)NC(=O)[C@H](Cc2ccccc2)NC1=O (single isomer, unassigned) | nM | 4.5

(1) CC(=O)N[C@H]1SS[C@H](C(=O)O)NC(=O)[C@H](Cc2ccccc2)NC(=O)[C@H]([C@@H](C)O)NC(=O)[C@H](CCCCN)NC(=O)[C@@H](Cc2c[nH]c3ccccc23)NC(=O)[C@H](Cc2ccccc2)NC(=O)[C@H](Cc2ccccc2)NC1=O
(2) CC(=O)N[C@H]1CSSC[C@@H](C(=O)O)NC(=O)[C@H](Cc2ccccc2)NC(=O)[C@H]([C@@H](C)O)NC(=O)[C@H](CCCCN)NC(=O)[C@@H](Cc2c[nH]c3ccccc23)NC(=O)[C@H](Cc2ccccc2)NC(=O)[C@H](Cc2ccccc2)NC1=O
Ask: Pick the one with the larger IC50: 1 vs 2 Please identify the chosen entry by its label.
Reply: 1
(1: 45 nM, 2: 7.1 nM)
